Just for reference, patent US20210395344A1 is where these values come from.

# Target Under Test: T1, SARS-CoV-2 Spike Glycoprotein S1 (subunit 1) (SARS-CoV-2, UniProt P0DTC2 16-685)
# T1 construct: also called S1 Monomer; SARS-CoV-2 S1
# Protocol Summary: screening phage ELISA, mean
So I've got a bunch of binders here, and I need their ELISA (Avg) values.
Reply briefly: the number, and no unit.

// sample 1-31 (antibody, V domains shown) VH: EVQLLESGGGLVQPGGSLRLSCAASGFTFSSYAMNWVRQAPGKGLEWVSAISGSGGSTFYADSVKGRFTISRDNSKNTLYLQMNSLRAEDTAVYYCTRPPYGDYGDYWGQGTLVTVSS VL: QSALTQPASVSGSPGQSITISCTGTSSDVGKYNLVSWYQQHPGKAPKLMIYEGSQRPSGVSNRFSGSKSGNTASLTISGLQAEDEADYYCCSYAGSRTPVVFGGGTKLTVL , its ELISA (Avg) was 20.7

The value of ELISA (Avg) measured for the binder 1-21 (antibody, V domains shown) VH: EVQLLESGGGLVQPGGSLRLSCAASGFTFSSYTMSWVRQAPGKGLEWVSIISGSGGSTYYADSVKGRFTISRDNSKNTLYLQMNSLRAEDTAVYYCAREGYRDYLWYFDLWGQGTLVTVSS VL: QSALTQPASVSGSPGQSITISCTGTSSDVGSNNLVSWYQQHPGKAPKLMIYEGNKRPSGVSNRFSGSKSGNTASLTISGLQAEDEADYYCCSYAGSVVFGGGTKLTVL turned out to be 47.6

Value of measured ELISA (Avg) for the entry 1-2 (antibody, V domains shown) VH: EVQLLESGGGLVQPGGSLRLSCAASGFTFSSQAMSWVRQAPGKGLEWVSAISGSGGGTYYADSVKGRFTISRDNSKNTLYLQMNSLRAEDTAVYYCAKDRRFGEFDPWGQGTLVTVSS VL: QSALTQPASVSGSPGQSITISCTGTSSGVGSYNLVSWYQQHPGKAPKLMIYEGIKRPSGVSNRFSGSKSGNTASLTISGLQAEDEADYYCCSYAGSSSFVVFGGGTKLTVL : 24.2

GET /value?item= 1-17 (antibody, V domains shown) VH: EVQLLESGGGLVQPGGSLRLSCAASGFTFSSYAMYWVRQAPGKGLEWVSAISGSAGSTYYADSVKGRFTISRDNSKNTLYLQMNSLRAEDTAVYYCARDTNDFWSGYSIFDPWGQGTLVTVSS VL: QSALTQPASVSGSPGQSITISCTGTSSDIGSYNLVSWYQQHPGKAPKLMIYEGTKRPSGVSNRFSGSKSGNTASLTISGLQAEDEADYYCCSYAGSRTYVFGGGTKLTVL &field=ELISA (Avg) returns 27.4

Form: binder = 1-32 (antibody, V domains shown) VH: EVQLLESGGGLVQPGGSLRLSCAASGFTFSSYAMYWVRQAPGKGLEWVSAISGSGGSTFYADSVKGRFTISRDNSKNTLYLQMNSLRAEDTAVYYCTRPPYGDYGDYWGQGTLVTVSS VL: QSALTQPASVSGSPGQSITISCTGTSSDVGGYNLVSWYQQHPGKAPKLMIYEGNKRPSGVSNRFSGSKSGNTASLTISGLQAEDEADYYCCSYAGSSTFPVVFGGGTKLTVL ; ELISA (Avg) = 17.9

For 1-4 (antibody, V domains shown) VH: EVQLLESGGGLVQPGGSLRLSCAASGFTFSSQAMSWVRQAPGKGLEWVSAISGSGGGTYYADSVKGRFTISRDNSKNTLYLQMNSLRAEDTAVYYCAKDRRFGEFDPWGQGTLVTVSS VL: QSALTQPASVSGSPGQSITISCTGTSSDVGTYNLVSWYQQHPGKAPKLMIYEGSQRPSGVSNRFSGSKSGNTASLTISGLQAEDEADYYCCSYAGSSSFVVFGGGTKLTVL the binder record lists ELISA (Avg) as 20.6

For 1-30 (antibody, V domains shown) VH: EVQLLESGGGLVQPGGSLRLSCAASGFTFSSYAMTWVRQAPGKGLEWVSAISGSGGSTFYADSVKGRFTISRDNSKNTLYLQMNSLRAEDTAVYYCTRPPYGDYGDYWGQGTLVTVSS VL: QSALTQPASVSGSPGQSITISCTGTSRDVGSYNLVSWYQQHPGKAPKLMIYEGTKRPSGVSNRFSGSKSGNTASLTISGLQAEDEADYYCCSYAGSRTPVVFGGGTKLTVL the binder record lists ELISA (Avg) as 29.5

Reported ELISA (Avg) ( 1-27 (antibody, V domains shown) VH: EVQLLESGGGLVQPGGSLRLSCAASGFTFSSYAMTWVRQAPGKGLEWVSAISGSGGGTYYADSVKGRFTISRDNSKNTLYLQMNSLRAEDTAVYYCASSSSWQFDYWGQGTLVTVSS VL: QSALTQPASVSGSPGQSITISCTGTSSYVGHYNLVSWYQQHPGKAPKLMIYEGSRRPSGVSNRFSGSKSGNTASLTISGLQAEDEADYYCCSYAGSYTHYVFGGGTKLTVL ) = 27.2

Short answer for 1-29 (antibody, V domains shown) VH: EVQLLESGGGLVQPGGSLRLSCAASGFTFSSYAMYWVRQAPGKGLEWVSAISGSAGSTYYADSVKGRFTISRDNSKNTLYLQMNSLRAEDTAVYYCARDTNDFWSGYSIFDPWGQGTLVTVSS VL: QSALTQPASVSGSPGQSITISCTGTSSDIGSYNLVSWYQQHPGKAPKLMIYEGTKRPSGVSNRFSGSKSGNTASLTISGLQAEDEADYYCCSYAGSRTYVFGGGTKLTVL : ELISA (Avg) was 23.8

For 1-9 (antibody, V domains shown) VH: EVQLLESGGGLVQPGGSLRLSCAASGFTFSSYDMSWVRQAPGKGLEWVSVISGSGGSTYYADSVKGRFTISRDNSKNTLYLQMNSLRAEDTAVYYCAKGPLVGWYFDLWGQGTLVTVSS VL: QSALTQPASVSGSPGQSITISCTGTSSDVGDYNLVSWYQQHPGKAPKLMIYEGSNRPSGVSNRFSGSKSGNTASLTISGLQAEDEADYYCCSYAGSSSFVVFGGGTKLTVL the binder record lists ELISA (Avg) as 18.5
